Target: β-secretase(BACE) (Homo sapiens)
Construct: purchased Panvera
Assay: BACE FS1% Inhibition Assay
Format: biochemical
Details: 0.3 μM test compound; FS1 substrate
# key: entry, value: % Inhibition (FS) 0.3 μM
# number only, unit % dropped from output

[[record]]
compound = "CC(C)CC(=O)NCCN1Cc2cc(Oc3ccccc3)ccc2N=C1N [Compound 190]"
measurement = 51


Let us examine a further case.
Inquiry: Looking for the measured % Inhibition (FS) 0.3 μM of NC1=Nc2ccc(Oc3ccccc3)cc2CN1CCNC(=O)C(c1ccccc1)c1ccccc1 [Compound 207] , can you help?
Reply text: 48

---

Quick reference: inhibition at 3 µM of the listed items.
Target: β-secretase(BACE) (Homo sapiens, UniProt P56817)
Construct: purchased Panvera
Sequence (P56817 46-501): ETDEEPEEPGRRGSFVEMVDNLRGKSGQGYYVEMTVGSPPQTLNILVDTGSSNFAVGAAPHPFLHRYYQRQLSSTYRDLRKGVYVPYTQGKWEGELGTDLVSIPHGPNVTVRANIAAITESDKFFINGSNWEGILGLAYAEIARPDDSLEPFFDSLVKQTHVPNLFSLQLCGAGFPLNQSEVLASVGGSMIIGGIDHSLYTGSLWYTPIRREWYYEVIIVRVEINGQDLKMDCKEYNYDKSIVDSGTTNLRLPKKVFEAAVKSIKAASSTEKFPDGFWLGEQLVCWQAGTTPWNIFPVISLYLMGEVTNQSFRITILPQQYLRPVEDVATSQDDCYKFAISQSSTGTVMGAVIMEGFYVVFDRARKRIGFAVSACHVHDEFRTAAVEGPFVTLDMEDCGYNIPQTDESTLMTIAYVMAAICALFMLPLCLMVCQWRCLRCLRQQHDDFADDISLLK
Test: BACE FS1% Inhibition Assay
Format: biochemical
Settings: 3 μM test compound; FS1 substrate; read-out: % Inhibition (FS)
Procedure: BACE FS1% Inhibition Assay The following reagents were used in this assay: sodium acetate, PEG8000 (Sigma), DMSO, HEPES, FS1 substrate [[…]] […] The FS1-substrate stock solution was prepared in DMSO as a 10 mg/mL solution. The FS1-substrate working solution was prepared by diluting the 10 mg/mL stock solution with substrate assay buffer to a final concentration of 300 μg/mL. […] For test compounds, % inhibition was determined at each concentration as follows: [formula]
Note to self: number, then unit, no commentary.

Past entries and their recorded results:
[[record]]
molecule = "CN(C(=O)CC[C@@H](C1CCOCC1)N1Cc2cc(Oc3ccccc3)ccc2N=C1N)[C@H]1CC[C@H](C(=O)O)CC1"
test_target = "β-secretase(BACE) (Homo sapiens, UniProt P56817)"
readout_name = "inhibition at 3 µM"
measurement = "112%"

[[record]]
molecule = "NC1=Nc2ccc(Oc3ccccc3)cc2CN1[C@@H](CCC(=O)N[C@H](CO)C(=O)O)C1CCOCC1"
test_target = "β-secretase(BACE) (Homo sapiens, UniProt P56817)"
readout_name = "inhibition at 3 µM"
measurement = "119%"

[[record]]
molecule = "CN(CCC#N)C(=O)CC[C@@H](C1CCCCC1)N1Cc2cc(-c3ccccc3F)ccc2N=C1N"
test_target = "β-secretase(BACE) (Homo sapiens, UniProt P56817)"
readout_name = "inhibition at 3 µM"
measurement = "126%"

[[record]]
molecule = "NC1=Nc2ccc(Oc3ccccc3)cc2CN1[C@@H](CCC(=O)N(CCO)[C@H]1CC[C@@H](C(=O)O)CC1)C1CCCCC1"
test_target = "β-secretase(BACE) (Homo sapiens, UniProt P56817)"
readout_name = "inhibition at 3 µM"
measurement = "115%"


Could you now look at the following compound, please?
Inquiry: Report inhibition at 3 µM for CCCN1Cc2cc(Oc3cccc(NC(=O)CCCC(=O)N(C)C4CCCCC4)c3)ccc2N=C1N please.
Reply text: 59%
